assayed-target: T1, human Trop-2-His protein (human, UniProt P09758 27-274)
T1 construct: extracellular domain; Assay paragraphs say only 'Trop-2-His'; also called hTrop-2; Kactus Cat #TRP-HM121; not shown: His tag
T1 sequence (looked up): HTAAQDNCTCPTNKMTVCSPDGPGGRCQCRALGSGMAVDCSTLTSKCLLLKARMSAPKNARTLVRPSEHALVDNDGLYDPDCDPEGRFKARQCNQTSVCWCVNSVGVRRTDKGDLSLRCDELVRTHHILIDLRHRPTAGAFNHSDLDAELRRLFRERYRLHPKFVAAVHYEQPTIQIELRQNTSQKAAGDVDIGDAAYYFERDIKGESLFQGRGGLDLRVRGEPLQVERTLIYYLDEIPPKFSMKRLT
experiment: BLI (Gator Plus), purified Ab on HFC probe
result-type: koff (s⁻¹)
Write the answer as a number in s⁻¹, unit excluded.

For orientation, consider the following solved cases.
Suppose we examine the binder 5D4-2 (antibody, V domains shown) VH: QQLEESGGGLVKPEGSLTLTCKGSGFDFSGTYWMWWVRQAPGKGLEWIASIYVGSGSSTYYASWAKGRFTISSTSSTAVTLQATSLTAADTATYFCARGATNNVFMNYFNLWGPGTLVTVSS VL: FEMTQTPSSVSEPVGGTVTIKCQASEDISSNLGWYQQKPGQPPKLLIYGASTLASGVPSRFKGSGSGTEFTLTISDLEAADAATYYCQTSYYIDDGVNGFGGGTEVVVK ; what koff value has been reported?
6e-05

Item 72F12 (antibody, V domains shown, Rabbit-derived clone; LEM construct: VH + rabbit IgG CH1 + human IgG1 CH2-CH3) VH: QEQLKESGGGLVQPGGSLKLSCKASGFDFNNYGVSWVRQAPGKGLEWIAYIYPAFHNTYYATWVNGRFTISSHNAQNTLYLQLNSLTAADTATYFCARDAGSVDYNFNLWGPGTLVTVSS VL: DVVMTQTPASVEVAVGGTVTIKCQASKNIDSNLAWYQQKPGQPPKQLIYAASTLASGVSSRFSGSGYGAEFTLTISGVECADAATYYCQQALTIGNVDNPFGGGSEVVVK has what recorded koff?
0.000541

Others:
Give the measured koff of 63H3 (antibody, V domains shown, Rabbit-derived clone; LEM construct: VH + rabbit IgG CH1 + human IgG1 CH2-CH3) VH: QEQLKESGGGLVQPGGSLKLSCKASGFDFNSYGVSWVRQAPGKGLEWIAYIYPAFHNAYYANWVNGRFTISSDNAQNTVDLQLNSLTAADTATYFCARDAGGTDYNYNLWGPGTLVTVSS VL: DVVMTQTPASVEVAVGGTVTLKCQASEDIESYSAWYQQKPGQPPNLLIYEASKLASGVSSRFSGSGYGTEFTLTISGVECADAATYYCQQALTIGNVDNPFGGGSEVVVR .
2.5e-05
